- Measured target: SMARCA2 (Homo sapiens)
- Sequence (P51531 whole entry): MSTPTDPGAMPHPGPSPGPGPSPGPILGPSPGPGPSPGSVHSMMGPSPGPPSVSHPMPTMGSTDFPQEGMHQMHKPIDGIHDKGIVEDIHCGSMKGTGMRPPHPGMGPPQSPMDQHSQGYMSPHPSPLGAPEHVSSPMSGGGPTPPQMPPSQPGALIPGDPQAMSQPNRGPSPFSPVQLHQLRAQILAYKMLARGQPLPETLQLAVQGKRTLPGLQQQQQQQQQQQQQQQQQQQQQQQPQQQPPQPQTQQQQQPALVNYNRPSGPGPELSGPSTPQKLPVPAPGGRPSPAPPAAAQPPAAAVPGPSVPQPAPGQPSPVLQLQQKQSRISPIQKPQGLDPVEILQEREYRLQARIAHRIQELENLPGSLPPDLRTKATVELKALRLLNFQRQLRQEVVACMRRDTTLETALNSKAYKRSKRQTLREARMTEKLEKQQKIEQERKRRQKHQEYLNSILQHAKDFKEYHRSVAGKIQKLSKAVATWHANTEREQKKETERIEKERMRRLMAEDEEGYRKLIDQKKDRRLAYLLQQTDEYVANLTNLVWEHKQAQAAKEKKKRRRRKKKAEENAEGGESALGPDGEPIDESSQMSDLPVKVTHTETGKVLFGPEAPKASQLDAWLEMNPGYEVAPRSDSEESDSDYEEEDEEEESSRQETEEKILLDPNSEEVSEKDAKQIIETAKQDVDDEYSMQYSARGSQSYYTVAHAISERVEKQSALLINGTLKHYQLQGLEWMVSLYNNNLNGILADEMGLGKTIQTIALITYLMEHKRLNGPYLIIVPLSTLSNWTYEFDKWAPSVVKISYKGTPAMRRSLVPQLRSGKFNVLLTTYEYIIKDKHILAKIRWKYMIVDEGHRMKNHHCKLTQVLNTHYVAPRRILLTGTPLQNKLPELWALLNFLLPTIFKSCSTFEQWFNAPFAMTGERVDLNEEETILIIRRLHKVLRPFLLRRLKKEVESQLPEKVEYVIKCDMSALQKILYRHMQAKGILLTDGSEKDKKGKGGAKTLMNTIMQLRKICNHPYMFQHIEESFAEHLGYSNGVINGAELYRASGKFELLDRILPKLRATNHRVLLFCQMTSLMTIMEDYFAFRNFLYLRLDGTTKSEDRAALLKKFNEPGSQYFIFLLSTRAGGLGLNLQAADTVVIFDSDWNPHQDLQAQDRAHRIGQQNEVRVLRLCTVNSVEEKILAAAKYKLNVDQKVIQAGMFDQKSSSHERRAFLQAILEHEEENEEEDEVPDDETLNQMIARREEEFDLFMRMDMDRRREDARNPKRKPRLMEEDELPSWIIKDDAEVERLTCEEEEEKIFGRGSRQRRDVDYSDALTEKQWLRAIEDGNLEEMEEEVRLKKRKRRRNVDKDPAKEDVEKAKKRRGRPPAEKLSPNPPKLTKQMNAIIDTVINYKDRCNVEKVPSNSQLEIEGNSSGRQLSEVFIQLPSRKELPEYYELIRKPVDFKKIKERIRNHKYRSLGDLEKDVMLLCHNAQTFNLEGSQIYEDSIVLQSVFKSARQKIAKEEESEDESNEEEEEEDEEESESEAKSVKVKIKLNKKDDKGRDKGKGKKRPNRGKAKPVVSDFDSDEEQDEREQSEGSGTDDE
- Test name: SMARCA2 Western blot degradation in MV4-11 cells
- Type: cell-based
- Set-up: SMARCA2/SMARCA4 protein degradation selectivity in MV4-11 cells; endogenous in cells; host or cells: MV4-11
- Condition description: MV4-11, MV4-11 cells, 24 h; read-out: SMARCA2 MSD MV411 degradation 24 h: average Dmax %
Readout: Dmax

C#Cc1ccc(CNC(=O)[C@@H]2C[C@@H](O)CN2C(=O)[C@H](NC(=O)[C@H]2CCC3(CC2)C[C@H](N2CCC(c4cnc(N5CCN6c7cc(-c8ccccc8O)nnc7NC[C@H]6C5)nc4)CC2)C3)C(C)(C)CCO)cc1 (single isomer, unassigned) : < 50%
Cc1ncsc1-c1ccc(CNC(=O)[C@@H]2C[C@@H](O)CN2C(=O)[C@@H](NC(=O)C2(F)CC2)C(C)(C)C)c(OCCCCN2CCN(c3cnc(N4CCN5c6cc(-c7ccccc7O)nnc6NC[C@H]5C4)nc3)CC2)c1 (single isomer, unassigned) : > 90%
C#Cc1cnc(CNC(=O)[C@@H]2C[C@@H](O)CN2C(=O)[C@@H](NC(=O)[C@H]2CCC3(CC2)C[C@H](N2CCC(c4cnc(N5CCN6c7cc(-c8ccccc8O)nnc7NC[C@H]6C5)nc4)CC2)C3)C(C)(C)C)c(OC)c1 (single isomer, unassigned) : < 50%

As a next step, examine the molecule that follows.
Exam item: Report Dmax for Cc1ncsc1-c1ccc(CNC(=O)[C@@H]2C[C@@H](O)CN2C(=O)C(c2cc(OC[C@H]3CC[C@@H](N4CCC(c5cnc(N6CCc7[nH]c8nnc(-c9ccccc9O)cc8c7[C@H]6C)nc5)CC4)CC3)no2)C(C)C)cc1 (single isomer, unassigned) tested on SMARCA2 (Homo sapiens).
Marked response: > 90%

Origin of the recorded values: patent US20250170248A1
